Catalogue of Ratio OD(Variant)/OD(WT) readings, one per entry.
ASSAY_TARGET: HRgpA-6H (Porphyromonas gingivalis) (UniProt P28784)
PROTOCOL_DESCRIPTION: ELISA, FASEBA Fab on coated HRgpA-6H
Simply state the number, no unit and no words.

Before answering, review these 2 worked examples.
* KB001 mouse Fab VL S53A (Fab, V domains shown) VH: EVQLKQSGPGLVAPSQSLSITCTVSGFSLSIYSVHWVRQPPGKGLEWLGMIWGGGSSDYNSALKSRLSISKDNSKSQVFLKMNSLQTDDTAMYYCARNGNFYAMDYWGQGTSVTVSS VL: QIVLTQSPAIMSASLGERVTMTCTASSSVSSSFLHWYQQKPGSSPQLWIYSTANLASGVPARFSGSGSGTSYSLTISSMEAEDAATYYCHQYHHSPYIYTFGGGTKLEIK | 0.996
* KB001 mouse Fab VL S31W (Fab, V domains shown) VH: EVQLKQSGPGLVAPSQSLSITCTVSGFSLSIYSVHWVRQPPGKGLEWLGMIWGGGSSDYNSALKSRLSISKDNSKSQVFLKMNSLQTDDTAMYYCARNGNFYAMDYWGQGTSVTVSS VL: QIVLTQSPAIMSASLGERVTMTCTASSSVSWSFLHWYQQKPGSSPQLWIYSTSNLASGVPARFSGSGSGTSYSLTISSMEAEDAATYYCHQYHHSPYIYTFGGGTKLEIK | 0.956

--- query ---
Lookup: Find the recorded Ratio OD(Variant)/OD(WT) belonging to KB001 mouse Fab VL L55T (Fab, V domains shown) VH: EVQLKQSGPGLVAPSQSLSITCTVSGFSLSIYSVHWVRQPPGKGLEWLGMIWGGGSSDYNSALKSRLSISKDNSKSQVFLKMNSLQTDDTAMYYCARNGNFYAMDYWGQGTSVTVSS VL: QIVLTQSPAIMSASLGERVTMTCTASSSVSSSFLHWYQQKPGSSPQLWIYSTSNTASGVPARFSGSGSGTSYSLTISSMEAEDAATYYCHQYHHSPYIYTFGGGTKLEIK and report it.
Found: 0.928

Provenance of the data: patent US20230365662A1
